- Tested Target: plasmin (Homo sapiens, UniProt P00747)
- Sequence (P00747 581-810 limits assumed): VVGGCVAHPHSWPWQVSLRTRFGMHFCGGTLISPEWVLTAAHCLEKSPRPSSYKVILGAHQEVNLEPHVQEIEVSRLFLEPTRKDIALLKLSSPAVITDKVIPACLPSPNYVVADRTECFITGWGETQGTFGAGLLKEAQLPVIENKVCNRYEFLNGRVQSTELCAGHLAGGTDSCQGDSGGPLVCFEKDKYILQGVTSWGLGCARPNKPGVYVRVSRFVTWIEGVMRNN
- Sequence (P00747 97-580 partner limits assumed): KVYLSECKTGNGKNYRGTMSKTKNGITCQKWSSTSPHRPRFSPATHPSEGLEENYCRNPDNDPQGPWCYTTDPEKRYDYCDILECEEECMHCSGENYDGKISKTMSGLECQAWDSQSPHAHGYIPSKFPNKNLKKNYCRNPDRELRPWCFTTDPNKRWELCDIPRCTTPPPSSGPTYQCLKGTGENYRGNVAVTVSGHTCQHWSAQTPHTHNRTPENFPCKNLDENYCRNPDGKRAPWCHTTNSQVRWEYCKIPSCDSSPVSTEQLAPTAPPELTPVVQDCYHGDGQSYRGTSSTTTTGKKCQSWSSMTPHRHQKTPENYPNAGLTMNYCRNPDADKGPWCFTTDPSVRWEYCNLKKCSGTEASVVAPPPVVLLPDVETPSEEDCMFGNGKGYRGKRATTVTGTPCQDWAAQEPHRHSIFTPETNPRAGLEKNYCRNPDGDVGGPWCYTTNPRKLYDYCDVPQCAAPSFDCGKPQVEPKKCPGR
- Assay: inhibition of plasmin, dissociation constant Ki
- Test Context: read-out: Ki, Plasmin; Table 1
pKi: −log10 of the molar value.
Binary call on pKi: true (1) from 5 upward, false (0) beneath that.

>  <Compound>
CN(C)C(=O)N1CCN(C(=O)C(Cc2cccc(C(=N)N)c2)NS(=O)(=O)c2ccc3ccccc3c2)CC1 (stereo not shown)

>  <Category>
true (1)

$$$$
>  <Compound>
N=C(N)c1cccc(CC(NS(=O)(=O)c2ccc3ccccc3c2)C(=O)N2CCN(C=O)CC2)c1 (stereo not shown)

>  <Category>
true (1)

$$$$
>  <Compound>
CCS(=O)(=O)N1CCN(C(=O)C(Cc2cccc(C(=N)N)c2)NS(=O)(=O)c2ccc3ccccc3c2)CC1 (stereo not shown)

>  <Category>
true (1)

$$$$
>  <Compound>
N=C(N)c1cccc(CC(NS(=O)(=O)c2ccc3ccccc3c2)C(=O)N2CCN(S(=O)(=O)c3ccccc3)CC2)c1 (stereo not shown)

>  <Category>
false (0)

$$$$
>  <Compound>
N=C(N)c1cccc(CC(NS(=O)(=O)c2ccc3ccccc3c2)C(=O)N2CCN(CCO)CC2)c1 (stereo not shown)

>  <Category>
false (0)

$$$$
